# System: Wolbachia pipientis
# method: Anti-Wolbachia Cell-Based Screen
# Type: functional
# Set-up: scale not given: in the data most compounds retested in dose-response had high values
# experimental parameters: 5 µM
Out of some 48,000 compounds screened, about 13,000 (27%) showed an effect of 50% or more. The list shows a part of the results.
Consider the following compounds and their measured Percent Effect readings.
Please reply with the bare figure in % and do not write the unit itself.

Input line: Requested field: Percent Effect. Item: "CN(Cc1ccco1)C(=O)CN1C(=O)c2cc(Cl)c(Cl)cc2C1=O"
Output line: 81.66

Input line: Requested field: Percent Effect. Item: "O=C(Cc1ccccc1F)NCCN1CCOCC1"
Output line: 3.995

Input line: Requested field: Percent Effect. Item: "CN(Cc1cccs1)C(=O)CS(=O)(=O)Cc1ccc(Cl)c(Cl)c1"
Output line: 0.1099

Input line: Requested field: Percent Effect. Item: CSc1ccc(CNC(c2ccccc2)c2nccn2C)cc1 (centres undefined)
Output line: -1.677

Input line: Requested field: Percent Effect. Item: CCn1ccnc1CNCC1CCCN1c1cc(NC)ncn1 (centres undefined)
Output line: -2.475

Input line: Requested field: Percent Effect. Item: "CN(Cc1ccco1)C(=O)CN1C(=O)c2ccccc2C1=O"
Output line: 72.08

Input line: Requested field: Percent Effect. Item: "O=C(c1ncccn1)N1C[C@@H]2COC[C@]2(c2nnc(C3CC3)o2)C1"
Output line: -0.5118

Input line: Requested field: Percent Effect. Item: Cc1cccc(C(C(=O)N(C)Cc2ccco2)N(C)C)c1 (centres undefined)
Output line: 9.844

Further cases:
Input line: Requested field: Percent Effect. Item: Cn1ccc(CN2CCC3(CC2)CC(Nc2cnccn2)CO3)n1.O=C(O)C(F)(F)F (centres undefined)
Output line: 4.568

Input line: Requested field: Percent Effect. Item: "c1cc(C2CCN(Cc3nc(C4CC4)no3)CC2)[nH]n1"
Output line: 45.49

Input line: Requested field: Percent Effect. Item: "Cc1noc(C)c1CN(C)C(=O)c1ccc2c(c1O)OC(C)(C)C2"
Output line: -18.28
